EXPERIMENTAL DETAILS: Effect of stereoisomers on food consumption of meal-fed rats (Example 14)
Format: in vivo, Charles River female rats
ASSAY SETUP: 2.63 mmoles/kg oral
VALUE TYPE: Food Consumption, % of control

Observe how each entry below is paired with its result.
O=C(O)C[C@@](O)(C(=O)O)[C@H](Cl)C(=O)O [(+)-erythro-Chlorocitric acid]: 78 % of control
O=C(O)CC(O)(CC(=O)O)C(=O)O [Citric Acid]: 94 % of control
O=C(O)C[C@](O)(C(=O)O)[C@H](Cl)C(=O)O [(+)-threo-Chlorocitric acid]: 38 % of control

// each molecule listed below needs its Food Consumption, % of control
1. O=C(O)C[C@@](O)(C(=O)O)[C@@H](Cl)C(=O)O [(-)-threo-Chlorocitric acid]
2. O=C(O)C[C@](O)(C(=O)O)[C@@H](Cl)C(=O)O [(-)-erythro-Chlorocitric acid]

Completion:
16 % of control
53 % of control
